Please provide measured IC50 (nM), antagonist activity measured by β-arrestin assay for the entries that follow.
biological target: human C-C chemokine receptor type 8 (hCCR8) (human, UniProt P51685 1-355); assay: cell-based or functional assay
Sequence (P51685 whole entry): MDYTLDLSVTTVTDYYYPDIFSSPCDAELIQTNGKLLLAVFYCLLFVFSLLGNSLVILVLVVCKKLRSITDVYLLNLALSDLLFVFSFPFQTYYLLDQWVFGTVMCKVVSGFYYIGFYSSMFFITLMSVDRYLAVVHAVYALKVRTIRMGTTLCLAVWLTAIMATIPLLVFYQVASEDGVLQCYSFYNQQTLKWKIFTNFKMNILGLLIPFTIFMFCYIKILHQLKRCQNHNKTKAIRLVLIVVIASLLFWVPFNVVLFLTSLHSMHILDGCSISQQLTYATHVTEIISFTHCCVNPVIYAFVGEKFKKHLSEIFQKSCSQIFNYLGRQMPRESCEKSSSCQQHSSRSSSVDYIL
Answer with a number only, understood to be in nM.

**Query** Recorded IC50 (nM), antagonist activity measured by β-arrestin assay for murine-human chimeric (human IgG1) antibody 504E12D8D12 (antibody, V domains shown, Chimeric antibody derived from murine antibody A18 and human IgG1; also called chimeric 504E12D8D12 mAb) VH: EVQLVESGGGLVQPKGSLKLSCAASGFSFNTYAMNWVRQAPGKGLEWVARIRTKSNNYATYYAASVKDRFTISRDDSETMLYLQMNNLKTEDTAMYYCVRGGSGLNYVRYFDVWGTGTTVTVSS VL: DIVMTQAAPSVFVIPGESVSISCRSSKSLLHSNGNTYLYWFLQRPGQSPQLLIYRMSNLASGVPDRFSGSGSGSAFTLRISRVEAEDVGVYYCMQHLEYPFTFGSGTKLEIKR , please?
**Result** 0.867

**Query** Recorded IC50 (nM), antagonist activity measured by β-arrestin assay for murine-human chimeric (human IgG1) antibody 525F2F3F11 (antibody, V domains shown, Chimeric antibody derived from murine antibody A11 and human IgG1) VH: EVQLVESGGGLVQPKGSLKLSCAASGFSFNTYAMNWVRQAPGKGLEWVARIRTKSNNYATYYADSVKDRFTISRDDSENMLYLQMNNLKTEDTAMYYCVRGGSGLRYVRYFDVWGTGTTVTVSS VL: DIVMTQATPSVPVTPGESVSISCRSSKSLLHSNGNTYLYWFLQRPGQSPQLLIYRMSNLASGVPERFSGSGSGSAFTLRVSRVEAEDVGVYYCMQHLEYPFTFGSGTKLEIKR , please?
**Result** 1.52

**Query** Recorded IC50 (nM), antagonist activity measured by β-arrestin assay for murine-human chimeric (human IgG1) antibody 531B9B1C9 (antibody, V domains shown, Chimeric antibody derived from murine antibody A13 and human IgG1) VH: EVQLVESGGGLVQPKGSLKLSCAASGFSFNAYAMNWVRQAPGKGLDWVARIRSKSNNYATYYADSVKDRFTISRDDSESMLYLQMNNLKTEDTAMYFCVRQTYGSRDYAMDYWGQGTSVTVSS VL: DVVMTQTPLSLPVSLGDQASISCRSSQSLVHSNGNTYLHWYLQKPGQSPKLLIYKVSNRFSGVPDRFSGSGSGTDFTLKISRVEAEDLGVYFCCQSTHVPPYTFGGGTKLEIKR , please?
**Result** 2.18

**Query** Recorded IC50 (nM), antagonist activity measured by β-arrestin assay for mouse antibody 46A5C4B1 (MAb 2) (antibody, V domains shown, Mouse monoclonal antibody from a hybridoma; also called A2) VH: EVQLVESGGGLVQPKGSLKLSCAASGFSFNAYAMNWVRQAPGKGLEWVARIRSKSNNYATYYADSVKDRFIISRDDSESMLYLQMNNLKTEDTAMYFCVRGGTYGSTSYFDYWGQGTTLTVSS VL: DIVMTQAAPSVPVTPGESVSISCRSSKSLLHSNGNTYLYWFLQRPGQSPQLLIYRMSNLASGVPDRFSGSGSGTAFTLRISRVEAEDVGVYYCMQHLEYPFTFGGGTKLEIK , please?
**Result** 6.24
